method_description: probe aNOTCH2 binding on compound microarray – biochemical, small-molecule microarray, 635/667 nm fluorescence, primary screen (AID 1121);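 note: score merges feature fluorescence read at 667 nm with its signal to noise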
test_settings: higher = more signal
Short version: composite z-score at least -0.005 is y, less is n.

-- ask Please indicate if the recorded composite z-score for `O=C1O[C@@H](c2ccccc2)[C@@H](c2ccccc2)N2[C@@H](c3ccc(O)cc3)[C@]3(C(=O)Nc4ccc(C#CC5=CCCCC5)cc43)[C@@H](C(=O)Nc3nc4ccccc4s3)[C@H]12` meets or exceeds -0.005.
-- reply y

-- ask Input CC1C=C(CCCO)C=C(C(=O)OCCS(C)(=O)=O)C(C(=O)OCCS(C)(=O)=O)=CN1Cc1cccc(OC(F)(F)F)c1 (stereo not drawn)
-- reply y

-- ask Input `CC(=O)NCCCC[C@@H]1NC(=O)[C@@H]2C[C@H](C(=O)NCCCC[N+](C)(C)C)[C@H](c3cccc(OCCO)c3)N2C1=O`
-- reply n

-- ask Input `CCCN1C(=O)[C@@H]2Cc3c([nH]c4ccccc34)[C@@H](c3cccc(O)c3)N2C1=O`
-- reply n

-- ask Input `COc1cc2c(cc1OC)CN(C(=O)[C@@H]1[C@H]3C(=O)O[C@H](c4ccccc4)[C@H](c4ccccc4)N3[C@H](c3ccc(OCCO)cc3)[C@@]13C(=O)Nc1ccc(C#CCCO)cc13)CC2`
-- reply n

-- ask Input `COCCOC(=O)N1C(=O)[C@@]2(c3cc(C#CC4(O)CCCCCC4)ccc31)[C@H](C(=O)N1CCc3cc(OC)c(OC)cc3C1)[C@H]1C(=O)O[C@H](c3ccccc3)[C@H](c3ccccc3)N1[C@@H]2c1ccccc1OCCO`
-- reply y

-- ask Input `CCCCC=C[C@@H](NC(=O)CCc1ccccc1)c1ccccc1`
-- reply y

-- ask Input C=CCC(OC(C)=O)[C@@H]1[C@@H](N(Cc2ccc(-c3ccccc3)cc2)C(=O)Cc2ccc(OC)cc2)c2cc(OCCCO)ccc2N1C(=O)c1ccc(-c2ccccc2)cc1 (stereo partly drawn)
-- reply y

-- ask Input `O=C(NCc1ccccc1)[C@]1(Cc2ccccc2)N=C(c2ccc(OCCCO)cc2)O[C@@H]1c1ccccc1`
-- reply n

-- ask Input `COC(=O)[C@@]1(Cc2ccccc2)[C@H]2c3cc(C(=O)N(C)C)n(Cc4ccccn4)c3C[C@H]2CN1C(=O)c1ccccc1`
-- reply y

-- ask Input `CCOC(=O)C[C@H]1[C@H](OC(=O)Cc2ccc3c(c2)OCO3)[C@@H](NC(=O)c2ccccc2)c2cc(OCCCO)ccc2N1C(=O)c1ccc2ccccc2n1`
-- reply n

-- ask Input `COc1ccc(C#Cc2ccc3c(c2)[C@]2(C(=O)N3)[C@H](C(N)=O)[C@H]3C(=O)O[C@H](c4ccccc4)[C@H](c4ccccc4)N3[C@@H]2c2ccc(O)cc2)cc1`
-- reply n

-- ask Input `CC(C)NC(=O)[C@@H]1c2ccccc2C(=O)N(Cc2cc(C(F)(F)F)cc(C(F)(F)F)c2)[C@H]1c1ccc(CO)cc1`
-- reply n

This collection of values is drawn from PubChem BioAssay.
